assay: clinical; details: female, human, in vivo, AUC0-∞
ENDPOINT_LABEL: AUC(0-inf) (ng·h/mL)
Number only, in ng·h/mL; omit the unit.

Input: Bench note: what AUC(0-inf) did COc1cccc2c1C(=O)c1c(O)c3c(c(O)c1C2=O)C[C@@](O)(C(=O)CO)C[C@@H]3O[C@H]1C[C@H](N)[C@H](O)[C@H](C)O1 show?
Output: 1190
